Molecular target: Serine/threonine-protein kinase H1 (Homo sapiens, UniProt P11801)
Sequence (P11801 whole entry): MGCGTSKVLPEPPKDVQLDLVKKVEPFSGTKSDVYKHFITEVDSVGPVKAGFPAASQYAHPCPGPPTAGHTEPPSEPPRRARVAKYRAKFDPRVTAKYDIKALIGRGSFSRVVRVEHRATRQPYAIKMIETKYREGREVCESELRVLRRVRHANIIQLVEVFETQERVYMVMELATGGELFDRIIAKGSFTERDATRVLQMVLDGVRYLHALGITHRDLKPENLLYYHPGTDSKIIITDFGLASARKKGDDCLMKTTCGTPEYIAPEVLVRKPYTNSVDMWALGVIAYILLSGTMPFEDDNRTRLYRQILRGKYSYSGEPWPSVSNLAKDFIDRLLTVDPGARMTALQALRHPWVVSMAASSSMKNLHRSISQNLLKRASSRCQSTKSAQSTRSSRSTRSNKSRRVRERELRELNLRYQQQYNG
Observed property: IC50
The answer consists of two parts: a number and, after it, its unit.

>  <Compound>
CN1C(=O)[C@@H](N2CCc3cn(Cc4ccccc4)nc3C2=O)COc2ccccc21

>  <Result value>
1000 nM

$$$$

Known value: Serine/threonine-protein kinase H1 (Homo sapiens, UniProt P11801) IC50 of the compound CN1C(=O)[C@@H](N2CCc3cn(CC4CCS(=O)(=O)CC4)nc3C2=O)COc2ccccc21 [TP-030n] equals 1000 nM

###

Molecular target: Ephrin type-B receptor 2 (Homo sapiens)
Sequence (P29323 whole entry): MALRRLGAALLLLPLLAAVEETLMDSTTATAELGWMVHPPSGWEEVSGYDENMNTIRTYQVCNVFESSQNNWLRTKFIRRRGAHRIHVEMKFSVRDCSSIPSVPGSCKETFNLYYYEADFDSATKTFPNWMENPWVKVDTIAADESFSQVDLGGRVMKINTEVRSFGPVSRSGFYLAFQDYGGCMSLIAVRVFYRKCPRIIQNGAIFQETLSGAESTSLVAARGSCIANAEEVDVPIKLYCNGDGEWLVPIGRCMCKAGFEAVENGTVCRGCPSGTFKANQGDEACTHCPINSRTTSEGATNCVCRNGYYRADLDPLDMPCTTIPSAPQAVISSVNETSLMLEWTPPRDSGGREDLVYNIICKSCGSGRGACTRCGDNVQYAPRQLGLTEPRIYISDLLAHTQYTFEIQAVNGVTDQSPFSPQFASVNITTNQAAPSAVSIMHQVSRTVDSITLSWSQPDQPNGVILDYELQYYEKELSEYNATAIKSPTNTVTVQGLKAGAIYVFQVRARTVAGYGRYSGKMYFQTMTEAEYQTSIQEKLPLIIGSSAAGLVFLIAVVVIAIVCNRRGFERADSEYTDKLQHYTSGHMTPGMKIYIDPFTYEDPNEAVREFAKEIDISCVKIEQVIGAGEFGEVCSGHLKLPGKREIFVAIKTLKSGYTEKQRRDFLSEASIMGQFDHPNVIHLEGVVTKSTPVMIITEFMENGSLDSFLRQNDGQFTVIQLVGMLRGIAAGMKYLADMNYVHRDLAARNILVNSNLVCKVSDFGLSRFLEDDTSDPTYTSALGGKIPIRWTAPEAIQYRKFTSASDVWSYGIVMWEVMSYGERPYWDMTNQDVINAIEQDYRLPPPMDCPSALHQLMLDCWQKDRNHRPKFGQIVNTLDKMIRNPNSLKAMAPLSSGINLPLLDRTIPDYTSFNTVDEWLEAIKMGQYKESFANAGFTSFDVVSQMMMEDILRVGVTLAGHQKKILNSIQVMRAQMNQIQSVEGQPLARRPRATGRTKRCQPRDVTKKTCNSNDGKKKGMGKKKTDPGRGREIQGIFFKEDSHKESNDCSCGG
pIC50: recorded values
pIC50 here is simply -log10 of the concentration when that concentration is written in mol/L.

>  <Compound>
CN1C(=O)[C@@H](N2CCc3cn(Cc4ccccc4)nc3C2=O)COc2ccccc21 [TP-030-1]

>  <Measurement target>
Ephrin type-B receptor 2 (Homo sapiens)

>  <pIC50>
6.00

$$$$

In the following, a different compound is considered.
Measured pIC50, CN1C(=O)[C@@H](N2CCc3cn(CC4CCS(=O)(=O)CC4)nc3C2=O)COc2ccccc21 [TP-030n] : 6.00

###

As a worked illustration, we turn to pIC50 data collected for Serine/threonine-protein kinase PLK3 (Homo sapiens).
For clarity, pIC50 is expressed as the negative log10 of concentration in mol/L.

>  <Molecule>
CN1C(=O)[C@@H](N2CCc3cn(Cc4ccccc4)nc3C2=O)COc2ccccc21

>  <Measurement target>
Serine/threonine-protein kinase PLK3 (Homo sapiens)
Sequence (Q9H4B4 whole entry): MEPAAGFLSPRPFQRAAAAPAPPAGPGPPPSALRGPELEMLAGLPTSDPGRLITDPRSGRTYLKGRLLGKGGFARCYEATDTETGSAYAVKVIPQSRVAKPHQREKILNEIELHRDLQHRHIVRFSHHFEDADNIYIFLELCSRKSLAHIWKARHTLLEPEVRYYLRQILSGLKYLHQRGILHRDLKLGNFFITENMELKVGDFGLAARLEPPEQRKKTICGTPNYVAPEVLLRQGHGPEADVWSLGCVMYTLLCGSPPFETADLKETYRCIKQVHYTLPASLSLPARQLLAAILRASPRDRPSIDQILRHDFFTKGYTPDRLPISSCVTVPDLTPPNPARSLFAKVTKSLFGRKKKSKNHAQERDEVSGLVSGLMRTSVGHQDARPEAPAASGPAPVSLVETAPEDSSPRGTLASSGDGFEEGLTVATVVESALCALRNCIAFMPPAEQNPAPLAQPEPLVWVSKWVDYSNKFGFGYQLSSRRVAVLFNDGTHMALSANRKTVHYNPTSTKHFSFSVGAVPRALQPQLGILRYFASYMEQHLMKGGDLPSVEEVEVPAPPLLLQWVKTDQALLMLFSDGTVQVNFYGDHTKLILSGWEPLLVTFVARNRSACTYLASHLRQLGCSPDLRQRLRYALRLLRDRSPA

>  <pIC50>
6.00

$$$$

Tested on Serine/threonine-protein kinase PLK3 (Homo sapiens): CN1C(=O)[C@@H](N2CCc3cn(CC4CCS(=O)(=O)CC4)nc3C2=O)COc2ccccc21 [TP-030n] . Observed pIC50: 6.00

###

// each record: one item and its IC50 for Serine/threonine-protein kinase Chk2 (Homo sapiens)
Respond with the bare value in nM.

Tested on Serine/threonine-protein kinase Chk2 (Homo sapiens): CN1C(=O)[C@@H](N2CCc3cn(CC4CCS(=O)(=O)CC4)nc3C2=O)COc2ccccc21 [TP-030n] . Observed IC50: 1000

Value (IC50, Serine/threonine-protein kinase Chk2 (Homo sapiens)) for record CN1C(=O)[C@@H](N2CCc3cn(Cc4ccccc4)nc3C2=O)COc2ccccc21 [TP-030-1] = 1000

###

Target: Mitogen-activated protein kinase kinase kinase 2 (Homo sapiens)
Sequence (Q9Y2U5 whole entry): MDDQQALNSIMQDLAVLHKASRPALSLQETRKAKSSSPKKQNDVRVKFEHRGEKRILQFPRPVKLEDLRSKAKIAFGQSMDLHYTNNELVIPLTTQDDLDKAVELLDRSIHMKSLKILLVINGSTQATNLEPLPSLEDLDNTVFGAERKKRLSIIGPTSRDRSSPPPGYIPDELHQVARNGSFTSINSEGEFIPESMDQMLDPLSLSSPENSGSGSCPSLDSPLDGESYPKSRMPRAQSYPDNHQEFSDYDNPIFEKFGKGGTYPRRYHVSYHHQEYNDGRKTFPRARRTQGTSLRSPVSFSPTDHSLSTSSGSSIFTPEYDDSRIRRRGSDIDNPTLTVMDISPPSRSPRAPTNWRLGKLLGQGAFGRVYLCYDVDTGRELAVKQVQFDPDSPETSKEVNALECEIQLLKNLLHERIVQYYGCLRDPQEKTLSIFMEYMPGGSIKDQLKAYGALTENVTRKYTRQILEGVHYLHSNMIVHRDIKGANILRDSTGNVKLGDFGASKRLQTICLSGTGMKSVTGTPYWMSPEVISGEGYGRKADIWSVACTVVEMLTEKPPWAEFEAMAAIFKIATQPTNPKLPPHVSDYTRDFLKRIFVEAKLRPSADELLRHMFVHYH
Test: MEKK2 [MAP3K2(M3K2LGF1)] Takeda global kinase panel
Observed property: IC50 (nM)
Give a bare numeral; the unit nM is implied.

Memo: CN1C(=O)[C@@H](N2CCc3cn(CC4CCS(=O)(=O)CC4)nc3C2=O)COc2ccccc21 [TP-030n] , reported IC50: 1000

###

Biological target: Dual specificity tyrosine-phosphorylation-regulated kinase 1B (Homo sapiens)
Sequence (Q9Y463 whole entry): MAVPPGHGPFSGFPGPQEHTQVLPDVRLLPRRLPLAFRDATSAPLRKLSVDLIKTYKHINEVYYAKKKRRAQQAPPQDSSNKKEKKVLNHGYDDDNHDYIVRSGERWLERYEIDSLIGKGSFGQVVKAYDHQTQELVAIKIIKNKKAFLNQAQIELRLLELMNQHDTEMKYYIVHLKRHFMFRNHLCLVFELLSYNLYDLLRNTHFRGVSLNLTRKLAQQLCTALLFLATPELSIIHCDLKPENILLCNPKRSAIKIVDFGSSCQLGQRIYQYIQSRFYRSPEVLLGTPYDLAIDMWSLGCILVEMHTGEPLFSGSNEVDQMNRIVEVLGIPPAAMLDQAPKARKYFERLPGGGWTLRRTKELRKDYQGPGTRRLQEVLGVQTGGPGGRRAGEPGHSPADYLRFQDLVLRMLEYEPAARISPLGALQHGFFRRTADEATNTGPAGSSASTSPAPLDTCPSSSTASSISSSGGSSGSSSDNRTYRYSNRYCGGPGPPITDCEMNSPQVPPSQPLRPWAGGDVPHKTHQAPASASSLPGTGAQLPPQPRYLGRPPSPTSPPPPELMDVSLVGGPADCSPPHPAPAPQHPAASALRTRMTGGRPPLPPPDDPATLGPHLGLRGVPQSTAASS
We begin with a simple list: items and their reported pIC50.
Reminder that pIC50 means the negative base-10 logarithm of the concentration expressed in mol/L.

>  <Compound>
CN1C(=O)[C@@H](N2CCc3cn(CC4CCS(=O)(=O)CC4)nc3C2=O)COc2ccccc21 [TP-030n]

>  <Result value>
6.00

$$$$

Turning now to a further record.
Recorded pIC50 (compound CN1C(=O)[C@@H](N2CCc3cn(Cc4ccccc4)nc3C2=O)COc2ccccc21 [TP-030-1] ): 6.00

###

Target: Calcium/calmodulin-dependent protein kinase type II subunit gamma (Homo sapiens, UniProt Q13555)
Sequence (Q13555 whole entry): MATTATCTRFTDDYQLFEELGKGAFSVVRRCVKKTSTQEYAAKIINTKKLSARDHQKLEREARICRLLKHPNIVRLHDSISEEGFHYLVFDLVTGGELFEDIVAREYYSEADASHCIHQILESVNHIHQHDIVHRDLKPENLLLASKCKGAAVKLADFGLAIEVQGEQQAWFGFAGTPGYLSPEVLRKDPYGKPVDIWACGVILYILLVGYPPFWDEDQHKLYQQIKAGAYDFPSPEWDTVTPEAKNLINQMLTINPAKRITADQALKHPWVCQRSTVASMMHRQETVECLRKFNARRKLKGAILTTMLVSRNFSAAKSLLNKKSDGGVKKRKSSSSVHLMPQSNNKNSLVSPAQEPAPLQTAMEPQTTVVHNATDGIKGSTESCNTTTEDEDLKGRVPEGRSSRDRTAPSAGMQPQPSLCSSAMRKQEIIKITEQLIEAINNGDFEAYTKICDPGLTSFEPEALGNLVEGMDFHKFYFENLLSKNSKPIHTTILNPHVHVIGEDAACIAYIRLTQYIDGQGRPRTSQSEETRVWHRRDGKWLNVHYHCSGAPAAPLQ
Assay: CaMK2gamma(CA2GLGT5) Takeda global kinase panel
Observed property: IC50 (µM)
Entry rule: numbers only, all in µM.

Notebook: CN1C(=O)[C@@H](N2CCc3cn(CC4CCS(=O)(=O)CC4)nc3C2=O)COc2ccccc21 [TP-030n] , IC50 read as 1

###

Molecular target: Serine/threonine-protein kinase N2 (Homo sapiens)
Sequence (Q16513 whole entry): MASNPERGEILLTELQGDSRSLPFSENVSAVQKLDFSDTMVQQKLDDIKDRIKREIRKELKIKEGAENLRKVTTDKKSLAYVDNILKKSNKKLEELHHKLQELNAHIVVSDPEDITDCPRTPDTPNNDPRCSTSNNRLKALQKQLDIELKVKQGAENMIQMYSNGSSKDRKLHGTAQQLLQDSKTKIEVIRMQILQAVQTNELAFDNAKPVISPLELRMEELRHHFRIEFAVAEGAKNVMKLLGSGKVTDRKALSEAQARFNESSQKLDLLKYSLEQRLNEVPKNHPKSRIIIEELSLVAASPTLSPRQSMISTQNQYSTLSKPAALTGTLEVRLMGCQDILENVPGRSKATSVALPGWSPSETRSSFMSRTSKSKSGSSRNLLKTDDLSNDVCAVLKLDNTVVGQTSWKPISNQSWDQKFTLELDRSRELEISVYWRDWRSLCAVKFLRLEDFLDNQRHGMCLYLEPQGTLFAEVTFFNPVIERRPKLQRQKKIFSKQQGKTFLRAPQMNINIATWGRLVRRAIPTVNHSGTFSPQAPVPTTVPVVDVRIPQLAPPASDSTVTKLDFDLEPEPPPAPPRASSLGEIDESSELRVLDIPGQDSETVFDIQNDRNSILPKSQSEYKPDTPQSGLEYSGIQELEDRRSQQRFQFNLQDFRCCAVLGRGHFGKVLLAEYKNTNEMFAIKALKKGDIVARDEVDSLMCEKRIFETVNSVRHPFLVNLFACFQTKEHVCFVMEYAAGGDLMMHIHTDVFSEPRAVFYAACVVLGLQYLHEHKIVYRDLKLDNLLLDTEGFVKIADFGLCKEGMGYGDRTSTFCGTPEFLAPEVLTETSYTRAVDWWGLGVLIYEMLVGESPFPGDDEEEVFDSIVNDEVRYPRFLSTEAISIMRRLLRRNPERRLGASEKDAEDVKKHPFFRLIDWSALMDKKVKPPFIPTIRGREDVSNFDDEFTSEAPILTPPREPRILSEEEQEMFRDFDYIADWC
Observed property: IC50
Give me the value, and tack the unit on after it.

// molecule CN1C(=O)[C@@H](N2CCc3cn(Cc4ccccc4)nc3C2=O)COc2ccccc21 [TP-030-1] , assay Serine/threonine-protein kinase N2 (Homo sapiens), IC50 value: 1000 nM

###

Target: 5'-AMP-activated protein kinase catalytic subunit alpha-1 (Homo sapiens, UniProt Q13131)
Sequence (Q13131 whole entry): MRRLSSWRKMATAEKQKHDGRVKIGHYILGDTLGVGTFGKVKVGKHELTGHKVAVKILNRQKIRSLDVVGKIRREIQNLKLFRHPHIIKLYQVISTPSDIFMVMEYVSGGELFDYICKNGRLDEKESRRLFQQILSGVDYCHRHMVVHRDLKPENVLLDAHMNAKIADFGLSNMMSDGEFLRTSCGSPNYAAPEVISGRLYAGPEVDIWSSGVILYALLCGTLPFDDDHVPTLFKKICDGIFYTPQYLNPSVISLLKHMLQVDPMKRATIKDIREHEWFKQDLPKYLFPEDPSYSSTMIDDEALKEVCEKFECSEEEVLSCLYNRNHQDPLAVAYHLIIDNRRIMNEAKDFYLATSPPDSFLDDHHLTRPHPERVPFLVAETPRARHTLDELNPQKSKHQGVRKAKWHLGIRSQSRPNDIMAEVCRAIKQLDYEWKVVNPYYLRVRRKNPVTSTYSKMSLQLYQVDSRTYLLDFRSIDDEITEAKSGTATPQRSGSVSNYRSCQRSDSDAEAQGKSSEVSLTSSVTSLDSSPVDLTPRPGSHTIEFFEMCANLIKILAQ
Assay: AMPKalpha1(PRA1PGF1) Takeda global kinase panel
Observed property: pIC50
Please note pIC50 is a logarithmic value: minus log10 of concentration in mol/L. Answer with that number alone.

CN1C(=O)[C@@H](N2CCc3cn(CC4CCS(=O)(=O)CC4)nc3C2=O)COc2ccccc21 [TP-030n] yielded pIC50 of 6.00

###

Target: Serine/threonine-protein kinase 38-like (Homo sapiens, UniProt Q9Y2H1)
Sequence (Q9Y2H1 whole entry): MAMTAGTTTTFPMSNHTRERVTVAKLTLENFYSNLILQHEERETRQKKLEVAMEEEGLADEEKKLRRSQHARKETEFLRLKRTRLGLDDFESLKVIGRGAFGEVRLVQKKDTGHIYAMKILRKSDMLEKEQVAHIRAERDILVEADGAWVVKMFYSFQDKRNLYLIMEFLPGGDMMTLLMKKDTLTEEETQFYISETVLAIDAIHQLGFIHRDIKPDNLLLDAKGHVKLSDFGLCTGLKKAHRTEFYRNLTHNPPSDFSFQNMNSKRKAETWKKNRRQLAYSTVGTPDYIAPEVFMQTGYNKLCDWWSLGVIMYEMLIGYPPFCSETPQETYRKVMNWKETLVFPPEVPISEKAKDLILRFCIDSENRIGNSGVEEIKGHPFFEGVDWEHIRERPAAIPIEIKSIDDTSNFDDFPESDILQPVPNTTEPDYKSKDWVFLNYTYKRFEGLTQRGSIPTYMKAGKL
Observed property: IC50 (µM)
Give the number; µM is assumed, so skip it.

Hey, Serine/threonine-protein kinase 38-like (Homo sapiens, UniProt Q9Y2H1) data for CN1C(=O)[C@@H](N2CCc3cn(CC4CCS(=O)(=O)CC4)nc3C2=O)COc2ccccc21 [TP-030n] : IC50 came out at 1

###

Biological target: Calcium/calmodulin-dependent protein kinase type II subunit alpha (Homo sapiens)
Sequence (Q9UQM7 whole entry): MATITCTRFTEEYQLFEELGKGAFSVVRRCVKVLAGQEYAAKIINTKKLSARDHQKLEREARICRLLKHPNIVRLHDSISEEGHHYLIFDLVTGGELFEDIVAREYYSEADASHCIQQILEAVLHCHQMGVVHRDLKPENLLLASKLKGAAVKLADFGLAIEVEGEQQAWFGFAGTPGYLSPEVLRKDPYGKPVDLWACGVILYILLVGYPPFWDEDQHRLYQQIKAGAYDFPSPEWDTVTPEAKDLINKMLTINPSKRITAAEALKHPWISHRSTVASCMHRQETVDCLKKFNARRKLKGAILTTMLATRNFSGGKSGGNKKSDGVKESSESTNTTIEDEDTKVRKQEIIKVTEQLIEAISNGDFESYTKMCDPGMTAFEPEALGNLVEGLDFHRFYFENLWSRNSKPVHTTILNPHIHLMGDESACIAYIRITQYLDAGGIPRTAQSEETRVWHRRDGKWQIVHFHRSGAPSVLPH
Assay: CaMK2alpha(CA2ACGT1) Takeda global kinase panel
Observed property: IC50 (nM)
The answer is to be given in nM; state only the numeric part.

Just so you know, measured IC50 for CN1C(=O)[C@@H](N2CCc3cn(CC4CCS(=O)(=O)CC4)nc3C2=O)COc2ccccc21 [TP-030n] came out at 1000

###

Molecular target: Dual specificity mitogen-activated protein kinase kinase 2 (Homo sapiens, UniProt P36507)
Test: MEK2 [MAP2K2(M2K2LGF1)] Takeda global kinase panel
Observed property: pIC50
Here pIC50 is given on a logarithmic scale as minus log10 of the concentration in mol/L.

Looking up CN1C(=O)[C@@H](N2CCc3cn(CC4CCS(=O)(=O)CC4)nc3C2=O)COc2ccccc21 [TP-030n] , I found its pIC50 recorded as 6.00
